Tested on: RPMI-6666 (Non-Cancerous)
Assay: Bliss excess, mean over the matrix (fraction); higher = more synergy
recorded-metric: Bliss excess

[[record]]
compound = "C[C@@H](Nc1cc(F)cc(F)c1)c1cc(C(=O)N(C)C)cc2c(=O)cc(N3CCOCC3)oc12 [AZD8186] + C1CN(CCC1(C(=O)N[C@@H](CCO)C2=CC=C(C=C2)Cl)N)C3=NC=NC4=C3C=CN4 [AZD5363] (first compound max 10 µM, 7x7, partner max 10 µM)"
assayed_target = "RPMI-6666 (Non-Cancerous)"
recorded_metric = "Bliss excess"
reported_result = -0.086


// next item, Bliss excess requested
[ask] Quick one: Bliss excess of Cc1cc2ncnn2cc1Nc1ncc2c(n1)n(C1CCOCC1)c(=O)n2C [AZD7648] + O=C(c1cc(Cc2n[nH]c(=O)c3ccccc23)ccc1F)N1CCN(C(=O)C2CC2)CC1 [Olaparib] (first compound max 10 µM, 7x7, partner max 10 µM) ?
[reply] -0.0545

###

Bliss excess by entry:
Tested on: HO-1-u-1 (Oral Cavity Carcinoma)
Assay: Bliss excess, mean over the matrix (fraction); higher = more synergy
I only need the number, thanks.

[[record]]
molecule = "C=CCn1c(=O)c2cnc(Nc3ccc(N4CCN(C)CC4)cc3)nc2n1-c1cccc(C(C)(C)O)n1 [AZD1775] + CCc1c2c(nc3ccc(O)cc13)-c1cc3c(c(=O)n1C2)COC(=O)[C@]3(O)CC [SN-38] (first compound max 1 µM, partner max 0.3 µM)"
recorded_metric = "Bliss excess"
reported_result = 0.0391

[[record]]
molecule = "NC1(C(=O)N[C@@H](CCO)c2ccc(Cl)cc2)CCN(c2ncnc3[nH]ccc23)CC1 [Capivasertib] + CC(C)n1c(=O)n(C)c2cnc3cc(F)c(-c4ccc(OCCCN5CCCCC5)nc4)cc3c21 [AZD1390] (first compound max 10 µM, 7x7, partner max 0.3 µM)"
recorded_metric = "Bliss excess"
reported_result = -0.0332

[[record]]
molecule = "CN(CCO)CC[C@H](CSc1ccccc1)Nc1ccc(S(=O)(=O)NC(=O)c2ccc(N3CCC([C@@H](O)c4ccccc4-c4ccc(Cl)cc4)CC3)cc2)cc1S(=O)(=O)C(F)(F)F [AZD4320] + C[C@@H](Nc1cc(F)cc(F)c1)c1cc(C(=O)N(C)C)cc2c(=O)cc(N3CCOCC3)oc12 [AZD8186] (first compound max 1 µM, 7x7, partner max 3 µM)"
recorded_metric = "Bliss excess"
reported_result = -0.0242


[ask] Quick one: Bliss excess of CS(=O)(=O)CCNCc1ccc(-c2ccc3ncnc(Nc4ccc(OCc5cccc(F)c5)c(Cl)c4)c3c2)o1 [Lapatinib] + Cn1cnc2c(F)c(Nc3ccc(Br)cc3Cl)c(C(=O)NOCCO)cc21 [Selumetinib] (first compound max 10 µM, 7x7, partner max 10 µM) ?
[reply] -0.0047

[ask] Quick one: Bliss excess of C[C@@H](Nc1cc(F)cc(F)c1)c1cc(C(=O)N(C)C)cc2c(=O)cc(N3CCOCC3)oc12 [AZD8186] + C1CN(CCC1(C(=O)N[C@@H](CCO)C2=CC=C(C=C2)Cl)N)C3=NC=NC4=C3C=CN4 [AZD5363] (first compound max 10 µM, 7x7, partner max 10 µM) ?
[reply] -0.073

[ask] Quick one: Bliss excess of Cc1c2c(nn1C)CSCc1cc(n(C)n1)CSc1cc(c3ccccc3c1)OCCCc1c(C(=O)O)n(C)c3c-2c(Cl)ccc13 [AZD5991] + CC(=O)O[C@H]1C(=O)[C@@]2(C)[C@H]([C@H](OC(=O)c3ccccc3)[C@]3(O)C[C@H](OC(=O)[C@H](O)[C@@H](NC(=O)c4ccccc4)c4ccccc4)C(C)=C1C3(C)C)[C@]1(OC(C)=O)CO[C@@H]1C[C@@H]2O [Paclitaxel] (first compound max 1 µM, 7x7, partner max 3 µM) ?
[reply] 0.214

###

combination Emax by entry:
System: COLO-829 (Melanoma)
Experiment: combination Emax (second highest fraction inhibited in the dose matrix, 72 h); higher = more inhibition; extreme values may be limits of the assay

[[record]]
molecule = "Cc1cc2ncnn2cc1Nc1ncc2c(n1)n(C1CCOCC1)c(=O)n2C [AZD7648] + C[C@@H]1COCCN1C2=NC(=NC(=C2)C3(CC3)[S@](=N)(=O)C)C4=C5C=CNC5=NC=C4 [AZD6738] (first compound max 10 µM, 7x7, partner max 10 µM)"
reported_result = 0.286


// next item, combination Emax requested
[ask] Quick one: combination Emax of Cc1cc2ncnn2cc1Nc1ncc2c(n1)n(C1CCOCC1)c(=O)n2C [AZD7648] + C=CCn1c(=O)c2cnc(Nc3ccc(N4CCN(C)CC4)cc3)nc2n1-c1cccc(C(C)(C)O)n1 [AZD1775] (first compound max 10 µM, partner max 1 µM) ?
[reply] 0.214

###

Tested on: RKO (Colorectal Carcinoma)
Test: combination Emax (second highest fraction inhibited in the dose matrix, 72 h); higher = more inhibition; extreme values may be limits of the assay
recorded-metric: combination Emax
I only need the number, thanks.

Example results:
[[record]]
compound = "O=C(c1cc(Cc2n[nH]c(=O)c3ccccc23)ccc1F)N1CCN(C(=O)C2CC2)CC1 [Olaparib] + CN(CC[C@H](CSC1=CC=CC=C1)NC2=C(C=C(C=C2)S(=O)(=O)NC(=O)C3=CC=C(C=C3)N4CCC(CC4)[C@H](C5=CC=CC=C5C6=CC=C(C=C6)Cl)O)S(=O)(=O)C(F)(F)F)CCO [AZD4320] (first compound max 10 µM, 7x7, partner max 1 µM)"
assayed_target = "RKO (Colorectal Carcinoma)"
reported_result = 0.11

[[record]]
compound = "C[C@@H](c1ccc2nccn2c1)n1nnc2ncc(-c3cnn(C)c3)nc21 [Savolitinib] + CC1(C)CCC(CN2CCN(c3ccc(C(=O)NS(=O)(=O)c4ccc(NCC5CCOCC5)c([N+](=O)[O-])c4)c(Oc4cnc5[nH]ccc5c4)c3)CC2)=C(c2ccc(Cl)cc2)C1 [Venetoclax] (first compound max 1 µM, 7x7, partner max 1 µM)"
assayed_target = "RKO (Colorectal Carcinoma)"
reported_result = 0.166


[ask] RKO (Colorectal Carcinoma) / combination Emax / CN(CCO)CC[C@H](CSc1ccccc1)Nc1ccc(S(=O)(=O)NC(=O)c2ccc(N3CCC([C@@H](O)c4ccccc4-c4ccc(Cl)cc4)CC3)cc2)cc1S(=O)(=O)C(F)(F)F [AZD4320] + C=CCn1c(=O)c2cnc(Nc3ccc(N4CCN(C)CC4)cc3)nc2n1-c1cccc(C(C)(C)O)n1 [AZD1775] (first compound max 1 µM, partner max 1 µM) : value?
[reply] 0.617

###

Tested on: 639-V (Bladder Carcinoma)
Assay: Bliss excess, mean over the matrix (fraction); higher = more synergy
recorded-metric: Bliss excess
I only need the number, thanks.

[[record]]
compound = "CN(C)CCCOc1ccc(-c2ccc3ncc4c(c3c2)n(C2CCOCC2)c(=O)n4C)cn1 [AZD0156] + CCN(CCO)CCCOc1ccc2c(Nc3cc(CC(=O)Nc4cccc(F)c4)[nH]n3)ncnc2c1 [AZD2811] (first compound max 1 µM, 7x7, partner max 1 µM)"
assayed_target = "639-V (Bladder Carcinoma)"
reported_result = 0.0064

[[record]]
compound = "CN(CCO)CC[C@H](CSc1ccccc1)Nc1ccc(S(=O)(=O)NC(=O)c2ccc(N3CCC([C@@H](O)c4ccccc4-c4ccc(Cl)cc4)CC3)cc2)cc1S(=O)(=O)C(F)(F)F [AZD4320] + C=CCn1c(=O)c2cnc(Nc3ccc(N4CCN(C)CC4)cc3)nc2n1-c1cccc(C(C)(C)O)n1 [AZD1775] (first compound max 1 µM, partner max 1 µM)"
assayed_target = "639-V (Bladder Carcinoma)"
reported_result = -0.0437


// next item, Bliss excess requested
[ask] 639-V (Bladder Carcinoma) / Bliss excess / CCc1c2c(nc3ccc(O)cc13)-c1cc3c(c(=O)n1C2)COC(=O)[C@]3(O)CC [SN-38] + CN(C)CCCOc1ccc(-c2ccc3ncc4c(c3c2)n(C2CCOCC2)c(=O)n4C)cn1 [AZD0156] (first compound max 0.3 µM, 7x7, partner max 1 µM) : value?
[reply] 0.068

###

Test system: HARA (Squamous Cell Lung Carcinoma)
Experiment: combination Emax (second highest fraction inhibited in the dose matrix, 72 h); higher = more inhibition; extreme values may be limits of the assay
recorded-metric: combination Emax

[[record]]
molecule = "CN(CCO)CC[C@H](CSc1ccccc1)Nc1ccc(S(=O)(=O)NC(=O)c2ccc(N3CCC([C@@H](O)c4ccccc4-c4ccc(Cl)cc4)CC3)cc2)cc1S(=O)(=O)C(F)(F)F [AZD4320] + CC(=O)O[C@H]1C(=O)[C@@]2(C)[C@H]([C@H](OC(=O)c3ccccc3)[C@]3(O)C[C@H](OC(=O)[C@H](O)[C@@H](NC(=O)c4ccccc4)c4ccccc4)C(C)=C1C3(C)C)[C@]1(OC(C)=O)CO[C@@H]1C[C@@H]2O [Paclitaxel] (first compound max 1 µM, 7x7, partner max 3 µM)"
reported_result = 0.999


// next item, combination Emax requested
[ask] Quick one: combination Emax of Cc1nc(Nc2ncc(C(=O)Nc3c(C)cccc3Cl)s2)cc(N2CCN(CCO)CC2)n1 [Dasatinib] + CC(=O)Nc1cccc(-n2c(=O)n(C3CC3)c(=O)c3c(Nc4ccc(I)cc4F)n(C)c(=O)c(C)c32)c1 [Trametinib] (first compound max 2 µM, 7x7, partner max 1 µM) ?
[reply] 0.531
